- assay_target: serotonin 5-HT1A receptor (Rattus norvegicus)
- Sequence (P19327 1-422): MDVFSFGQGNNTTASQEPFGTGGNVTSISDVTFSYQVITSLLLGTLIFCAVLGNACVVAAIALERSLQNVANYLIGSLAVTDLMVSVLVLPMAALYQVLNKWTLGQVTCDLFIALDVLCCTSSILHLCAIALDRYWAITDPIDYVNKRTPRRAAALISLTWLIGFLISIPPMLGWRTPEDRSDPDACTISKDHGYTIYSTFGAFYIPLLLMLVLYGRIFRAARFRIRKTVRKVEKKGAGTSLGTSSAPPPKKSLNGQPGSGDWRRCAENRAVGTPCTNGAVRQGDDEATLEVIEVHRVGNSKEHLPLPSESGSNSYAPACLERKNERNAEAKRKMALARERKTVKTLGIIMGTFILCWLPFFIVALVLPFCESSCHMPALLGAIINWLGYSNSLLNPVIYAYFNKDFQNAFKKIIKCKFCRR
pIC50: −log10 of the molar value. Structures can show the parent of a compound that is named as a salt.

{"columns": ["molecule", "pIC50"],
 "data": [
  ["O=C(N[C@@H](Cc1ccccc1)CN1CCN(Cc2ccccc2)CC1)C12CC3CC(CC(C3)C1)C2 [Example 2, Dihydrochloride Dihydrate]", 9.15],
  ["O=C(N[C@H](Cc1ccccc1)CN1CCN(Cc2ccccc2)CC1)C12CC3CC(CC(C3)C1)C2 [Example 1, Dihydrochloride Dihydrate]", 8.64],
  ["COc1ccccc1N1CCN(C[C@H](Cc2ccccc2)NC(=O)C23CC4CC(CC(C4)C2)C3)CC1.COc1ccccc1N1CCN(C[C@H](Cc2ccccc2)NC(=O)C23CC4CC(CC(C4)C2)C3)CC1.O.O.O=C(O)/C=C/C(=O)O [Example 7, Hemifumarate Hydrate]", 9.15],
  ["O=C(N[C@H](Cc1ccccc1)CN1CCN(c2ncccn2)CC1)C12CC3CC(CC(C3)C1)C2 [Example 3, Hemihydrate]", 9.37],
  ["O=C(N[C@@H](Cc1ccccc1)CN1CCN(c2ncccn2)CC1)C12CC3CC(CC(C3)C1)C2 [Example 4]", 9.00],
  ["Cl.Cl.O.O.O=C(N[C@@H](COCc1ccccc1)CN1CCN(Cc2ccccc2)CC1)C12CC3CC(CC(C3)C1)C2 [Example 5, Dihydrochloride Dihydrate]", 7.21],
  ["COc1ccccc1N1CCN(C[C@@H](Cc2ccccc2)NC(=O)C23CC4CC(CC(C4)C2)C3)CC1.COc1ccccc1N1CCN(C[C@@H](Cc2ccccc2)NC(=O)C23CC4CC(CC(C4)C2)C3)CC1.O.O=C(O)/C=C/C(=O)O [Example 6, Hemifumarate Hemihydrate]", 9.68]
]}

###

- assay_target: human 5-HT1A receptor (Homo sapiens)
- Construct: expressed in transfected cells; host or cells: CHO cells, stably transfected
- Sequence (P08908 whole entry): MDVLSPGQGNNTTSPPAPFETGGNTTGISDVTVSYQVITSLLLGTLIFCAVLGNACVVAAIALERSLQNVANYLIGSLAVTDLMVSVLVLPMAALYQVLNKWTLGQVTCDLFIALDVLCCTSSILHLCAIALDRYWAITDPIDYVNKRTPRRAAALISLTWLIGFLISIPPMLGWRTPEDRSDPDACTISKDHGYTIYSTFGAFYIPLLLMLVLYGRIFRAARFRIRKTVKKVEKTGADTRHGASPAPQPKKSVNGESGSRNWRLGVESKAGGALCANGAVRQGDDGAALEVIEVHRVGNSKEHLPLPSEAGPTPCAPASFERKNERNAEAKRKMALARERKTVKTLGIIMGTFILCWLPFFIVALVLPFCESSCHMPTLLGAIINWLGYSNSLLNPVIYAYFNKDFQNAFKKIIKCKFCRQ
- experiment_notes: Stimulation of [35S]-GTPγS binding (5-HT1A agonist activity) in CHO cells stably transfected with human 5-HT1A receptor
- Assay type: biochemical
- recorded_conditions: relative to the effect of the 5-HT1A full agonist 8-OH-DPAT
measurement_name: 5-HT1A Agonist Activity (GTPγS) % Agonist Activity (%)

{"columns": ["compound", "assay_result"],
 "data": [
  ["Cl.Cl.O.O.O=C(N[C@@H](COCc1ccccc1)CN1CCN(Cc2ccccc2)CC1)C12CC3CC(CC(C3)C1)C2 [Example 5]", 49],
  ["COc1ccccc1N1CCN(C[C@H](Cc2ccccc2)NC(=O)C23CC4CC(CC(C4)C2)C3)CC1.COc1ccccc1N1CCN(C[C@H](Cc2ccccc2)NC(=O)C23CC4CC(CC(C4)C2)C3)CC1.O.O.O=C(O)/C=C/C(=O)O [Example 7]", 85],
  ["COc1ccccc1N1CCN(C[C@@H](Cc2ccccc2)NC(=O)C23CC4CC(CC(C4)C2)C3)CC1.COc1ccccc1N1CCN(C[C@@H](Cc2ccccc2)NC(=O)C23CC4CC(CC(C4)C2)C3)CC1.O.O=C(O)/C=C/C(=O)O [Example 6]", 76]
]}

Source listed as patent US6831084B1.
